Can you tell me ELISA signal for the items I'm about to list?
Target: Influenza Hemagglutinin B (influenza B virus)
Experiment: ELISA on Influenza Hemagglutinin B (1 ug/mL); 293 supernatant diluted 1:1000

F2-24 (VHH) VHH: QVQLVESGGGLVQAGGSLRLSCASSGHTFNSYVMGWFRQAPGKEREFVAAIRPSGVSTYYADSVKGRFTISRDNAKNTVSLEMNSLKPEDTAVYYCAGDRDHSMMAVRRLSSYRQWGRGTQVTVSS
1.63
F1-04 (VHH) VHH: QVQLVESGGGLVQVGGSLRLSCAASERPSSNYAMGWFRQAPGKEQEFVAAIYWSGGGTAYGDSVKGRFTISKDNAKNTVYLQMNDLKPEDTGMYYCTTDHYGSWSYEYGSWGQGTQVTVSS
0.738
F2-02 (VHH) VHH: QVQLVESGGGLVQAGGSLRLSCAASGRTFRSFAMGWFRQAPGKEREFVATISWWSNNTYYADSVKGRFTISRDIAKNTVYLQMNSLKPEDTAVYYCAADLGPWLTAGQYDYWGQGTQVTVSS
0.61

Q: Look at this binder and give its reported ELISA signal. F2-20 (VHH) VHH: QVQLVESGGGLVQAGGSLRLSCAASGRTFSRYAMGWFRQAPGKEREFVARISWSGDITYYADSVKGRFTISRDNAKNTVYLQMNSLKPEDTAVYYCAADAILRTRPPYESDYWGQGTQVTVSS
A: 1.2
